melting point by entry:
Provide the reading as a plain figure in °C.

A selection of reference data follows.
>>> print(df.to_string())
                                   compound  reported_metric  readout_unit  recorded_number
0  Cc1cccc(COc2nn3c(-c4ccccc4F)nncc3c2-c2ccccc2F)n1 [Example 62]    melting point            °C              197
1  Cn1ncnc1COc1nn2c(-c3c(F)cccc3F)nncc2c1-c1ccccc1F [Example 49]    melting point            °C              163
2  Cn1ncnc1COc1nn2c(-c3ccoc3)nncc2c1-c1ccccc1F [Example 80]    melting point            °C              148

What value of measured melting point is listed for Cn1ncnc1COc1nn2c(-c3ccccc3F)nncc2c1-c1ccccc1F [Example 2] ?
169

What value of measured melting point is listed for Cn1ncnc1COc1nn2c(-c3ccc(F)cc3)nncc2c1C(C)(C)C [Example 37] ?
197

What value of measured melting point is listed for CCn1ncnc1COc1nn2c(-c3ccc(F)cc3)nncc2c1-c1ccccc1F [Example 47] ?
179

What value of measured melting point is listed for CCOc1cccnc1COc1nn2c(-c3ccccc3F)nncc2c1-c1ccccc1F [Example 68] ?
77

What value of measured melting point is listed for Cn1nncc1COc1nn2c(-c3ccccc3F)nncc2c1-c1ccccc1F [Example 60] ?
188

----------
reported-metric: melting point (°C)
Provide the reading as a plain figure in °C.

A selection of reference data follows.
>>> print(df.to_string())
                               query_smiles  reported_metric  recorded_number
0  CCn1ncnc1COc1nn2c(-c3ccccc3F)nncc2c1-c1ccccc1F    melting point              164
1  Cn1ncnc1COc1nn2c(-c3ccc(F)cc3F)nncc2c1C(C)(C)C    melting point              118
2  Cc1cccnc1COc1nn2c(-c3ccccc3F)nncc2c1-c1ccccc1F    melting point               69
3  CCCn1ncnc1COc1nn2c(-c3ccccc3F)nncc2c1C(C)(C)C    melting point               93
4  Cn1ncnc1COc1nn2c(-c3ccccc3F)nncc2c1-c1cccc(F)c1F    melting point              176

What value of measured melting point is listed for "CCn1ncnc1COc1nn2c(-c3cc(F)ccc3F)nncc2c1C(C)(C)C" ?
108

What value of measured melting point is listed for "Cc1cnc(COc2nn3c(-c4ccccc4F)nncc3c2-c2ccccc2F)s1" ?
154

What value of measured melting point is listed for "Cn1ncnc1COc1nn2c(-c3ccccc3F)nncc2c1-c1ccc(F)cc1" ?
192

----------
melting point by entry:
Provide the reading as a plain figure in °C.

>>> print(df.to_string())
                               query_smiles  reported_metric  recorded_number
0  Cn1ncnc1COc1nn2c(-c3ccc(F)cc3)nncc2c1-c1ccccc1F    melting point              191
1  Cn1ncnc1COc1nn2c(-c3cc(F)ccc3F)nncc2c1-c1ccccc1    melting point              199
2  Cn1ncnc1COc1nn2c(-c3ccccc3F)nncc2c1C(C)(C)C    melting point              128
3  Fc1ccccc1-c1c(OCc2cccnc2)nn2c(-c3ccccc3F)nncc12    melting point              146
4  CCn1ncnc1COc1nn2c(-c3ccc(F)cc3F)nncc2c1C(C)(C)C    melting point              145

Below: the item to evaluate.
What value of measured melting point is listed for "Fc1ccccc1-c1c(OCc2ccncn2)nn2c(-c3ccccc3F)nncc12" ?
189

----------
melting point by entry:

A selection of reference data follows.
In [3]: df
Out[3]:
                                   compound         result
0  CC(C)n1ncnc1COc1nn2c(-c3cc(F)ccc3F)nncc2c1C(C)(C)C [Example 30]         163 °C
1  Cn1ncnc1COc1nn2c(-c3cccnc3)nncc2c1-c1ccccc1F [Example 45]  164 to 166 °C
2  FCCn1ncnc1COc1nn2c(-c3ccccc3F)nncc2c1-c1ccccc1F [Example 86]  172 to 173 °C
3  Cn1ncnc1COc1nn2c(-c3ccccc3F)nncc2c1-c1cccc(F)c1 [Example 3]         176 °C
4  CCn1ncnc1COc1nn2c(-c3ccccc3F)nncc2c1-c1ccccc1 [Example 5]  171 to 173 °C
5  CCCn1ncnc1COc1nn2c(-c3ccc(F)cc3)nncc2c1-c1ccccc1F [Example 48]         148 °C

What value of measured melting point is listed for CCn1ncnc1COc1nn2c(-c3ccccc3F)nncc2c1-c1ccncc1 [Example 46] ?
214 to 217 °C

What value of measured melting point is listed for Cn1ncnc1COc1nn2c(-c3ccccc3F)nncc2c1-c1ccccc1 [Example 1] ?
176 °C

What value of measured melting point is listed for Cn1ncnc1COc1nn2c(-c3ccccc3)nncc2c1-c1ccccc1 [Example 12] ?
185 °C

----------
I would appreciate it if you labelled entries T when melting point is 200 °C or higher, otherwise F.

In [3]: df
Out[3]:
                               query_smiles  class_label
0  Cn1ncnc1COc1nn2c(-c3c(F)cccc3F)nncc2c1-c1ccccc1            F
1  Fc1ccccc1-c1c(OCc2ccncc2)nn2c(-c3ccccc3F)nncc12            F
2  Cc1csc(COc2nn3c(-c4ccccc4F)nncc3c2-c2ccccc2F)n1            F
3  Fc1ccccc1-c1c(OCc2ncccc2OC2CCC2)nn2c(-c3ccccc3F)nncc12            F

Shift focus to the following entry.
Kindly determine if melting point recorded for "Fc1ccccc1-c1c(OCc2cscn2)nn2c(-c3ccccc3F)nncc12" is above or exactly 200 °C.
T

----------
melting point by entry:
Provide the reading as a plain figure in °C.

A selection of reference data follows.
                                   molecule  recorded_number
0  Cn1ncnc1COc1nn2c(-c3ccccc3F)nncc2c1-c1c(F)cccc1F [Example 15]              196
1  Cn1ncnc1COc1nn2c(-c3cccs3)nncc2c1-c1ccccc1 [Example 11]              209
2  CCn1ncnc1COc1nn2c(-c3ccc(F)cc3)nncc2c1C(C)(C)C [Example 38]              190
3  Cn1cc(COc2nn3c(-c4ccccc4F)nncc3c2-c2ccccc2F)nn1 [Example 61]              175

What value of measured melting point is listed for CCn1ncnc1COc1nn2c(-c3c(F)ccc(F)c3F)nncc2c1C(C)(C)C [Example 29] ?
42

----------
melting point by entry:

In [3]: df
Out[3]:
                                   compound         result
0  CCn1ncnc1COc1nn2c(-c3cc(F)ccc3F)nncc2c1C(C)(C)CC [Example 33]    85 to 86 °C
1  Cn1ncnc1COc1nn2c(-c3ccccc3Cl)nncc2c1-c1ccccc1F [Example 88]  155 to 157 °C
2  Fc1ccccc1-c1c(OCc2nc3n(n2)CCCC3)nn2c(-c3ccccc3F)nncc12 [Example 83]  150 to 152 °C
3  CCn1ncnc1COc1nn2c(-c3ccccc3F)nncc2c1C(C)(C)CC [Example 40]    89 to 92 °C
4  Fc1ccccc1-c1nncc2c(-c3ccccc3)c(OCc3ccccn3)nn12 [Example 8]  182 to 183 °C

What value of measured melting point is listed for Cn1ncnc1COc1nn2c(-c3cnccn3)nncc2c1-c1ccccc1F [Example 31] ?
179 to 180 °C

What value of measured melting point is listed for CCn1ncnc1COc1nn2c(-c3ccccc3F)nncc2c1C(C)(C)C [Example 25] ?
105 °C

What value of measured melting point is listed for Cn1ncnc1COc1nn2c(-c3ccccc3F)nncc2c1-c1cccc(C(F)(F)F)c1 [Example 18] ?
152 to 155 °C

What value of measured melting point is listed for CCn1ncnc1COc1nn2c(-c3ccccc3F)nncc2c1-c1cccs1 [Example 92] ?
190 to 192 °C

What value of measured melting point is listed for Fc1ccccc1-c1c(OCc2cccnn2)nn2c(-c3ccccc3F)nncc12 [Example 76] ?
210 °C

What value of measured melting point is listed for Cc1cc(COc2nn3c(-c4ccccc4F)nncc3c2-c2ccccc2F)nn1C [Example 90] ?
183 °C

What value of measured melting point is listed for CCn1ncnc1COc1nn2c(-c3ccccc3F)nncc2c1-c1ccsc1 [Example 93] ?
187 to 193 °C

What value of measured melting point is listed for Cn1ncnc1COc1nn2c(-c3cccc(F)c3)nncc2c1-c1ccccc1F [Example 51] ?
169 to 170 °C

What value of measured melting point is listed for COc1cccnc1COc1nn2c(-c3ccccc3F)nncc2c1-c1ccccc1F [Example 67] ?
143 °C
